Reported pKi is given for each of the following molecules.
TARGET SYSTEM: Histamine H3 receptor (Homo sapiens)
Sequence (Q9Y5N1 whole entry): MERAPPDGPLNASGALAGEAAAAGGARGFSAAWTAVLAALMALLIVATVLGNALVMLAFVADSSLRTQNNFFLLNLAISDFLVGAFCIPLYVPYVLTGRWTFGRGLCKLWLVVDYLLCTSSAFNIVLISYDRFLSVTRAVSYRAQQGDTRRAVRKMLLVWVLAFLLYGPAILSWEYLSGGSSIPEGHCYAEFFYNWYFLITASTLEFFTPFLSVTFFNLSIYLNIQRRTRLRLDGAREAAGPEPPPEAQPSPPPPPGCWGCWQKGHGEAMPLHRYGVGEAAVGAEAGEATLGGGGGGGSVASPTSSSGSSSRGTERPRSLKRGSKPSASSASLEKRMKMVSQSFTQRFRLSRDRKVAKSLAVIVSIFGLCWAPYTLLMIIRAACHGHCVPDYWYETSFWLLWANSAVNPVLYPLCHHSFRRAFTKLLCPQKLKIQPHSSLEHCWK
MEASUREMENT NOTES: Displacement of [3H]N-alpha-methylhistamine from human recombinant histamine H3 receptor expressed in HEK cells after 30 mins by scintillation counting analysis
Type: cell-based, HEK293
// pKi: -log10(molar conc.)

Answered examples (3):
STRUCTURE SMILES STRING | REPORTED VALUE
Nc1cc(CN2CCC(F)(C(=O)N3CCC(N4Cc5cccnc5C4)CC3)CC2)ccn1 | 8.15
Nc1cc(CN2CCC(F)(C(=O)N3CCC(N4c5ccccc5Sc5cccnc54)CC3)CC2)ccn1 | 8.15
Nc1cc(CN2CCC(F)(C(=O)N3CCC(N4Cc5ccc(F)cc5C4)CC3)CC2)ccn1 | 8.70

Under Histamine H3 receptor (Homo sapiens): report pKi of COc1ccc2c(c1)CCCN(C1CCN(C(=O)C3(F)CCN(Cc4ccnc(N)c4)CC3)CC1)C2 .
9.00

Under Histamine H3 receptor (Homo sapiens): report pKi of Nc1cc(CN2CCC(F)(C(=O)N3CCC(N4Cc5ccccc5Cc5ccccc54)CC3)CC2)ccn1 .
8.40

Under Histamine H3 receptor (Homo sapiens): report pKi of Cn1c2c(c3ccccc31)CCN(C1CCN(C(=O)C3(F)CCN(Cc4ccnc(N)c4)CC3)CC1)CC2 .
7.82

Under Histamine H3 receptor (Homo sapiens): report pKi of Nc1cc(CN2CCC(F)(C(=O)N3CCC(N4CCc5ccccc5C4)CC3)CC2)ccn1 .
8.70

Under Histamine H3 receptor (Homo sapiens): report pKi of Nc1cc(CN2CCC(F)(C(=O)N3CCC(N4c5ccccc5Sc5ccccc54)CC3)CC2)ccn1 .
8.15

Under Histamine H3 receptor (Homo sapiens): report pKi of Nc1cc(CN2CCC(F)(C(=O)N3CCC(N4Cc5ccccc5C4)CC3)CC2)ccn1 .
8.70
